# credit: PubChem BioAssay AID651849

# study-target: Photoreceptor-specific nuclear receptor (Homo sapiens)
# assay-method-text: agonist-induced NR2E3-NCOR dissociation – cell-based, luminescence, CHO-S two-hybrid, late stage, dose response (AID 651849)
# experimental-parameters: CHO-S Gal4-NCOR/VP16-NR2E3 two-hybrid, luciferase
observed-property: IC50

[[record]]
compound = "Cc1cnc(NC(=O)C2CC(=O)N(c3ccc4c(c3)OCCO4)C2)s1 (stereo unspecified)"
study_target = "Photoreceptor-specific nuclear receptor (Homo sapiens)"
experimental_value = "7060 nM"

[[record]]
compound = "NC(=O)c1nn(-c2ccccc2)nc1NC(=O)CSc1nnnn1-c1ccc(Cl)cc1"
study_target = "Photoreceptor-specific nuclear receptor (Homo sapiens)"
experimental_value = "1570 nM"

[[record]]
compound = "COc1cccc(N2CCN(c3nc(-c4ccccc4C)cc(=O)[nH]3)CC2)c1"
study_target = "Photoreceptor-specific nuclear receptor (Homo sapiens)"
experimental_value = "428 nM"

[[record]]
compound = "Cc1cccc(C(=O)N[C@H](C(=O)Nc2ncc(C)s2)C(C)C)c1"
study_target = "Photoreceptor-specific nuclear receptor (Homo sapiens)"
experimental_value = "324 nM"

[[record]]
compound = "COc1ccc(NC2c3ccccc3C(=O)N2Cc2ccccc2Cl)cc1OC (stereo unspecified)"
study_target = "Photoreceptor-specific nuclear receptor (Homo sapiens)"
experimental_value = "4840 nM"


Query compound follows.
Can you share its IC50? I mean this compound: O=c1c(Cl)c(N2CCN(c3ccc(F)cc3)CC2)cnn1C12CC3CC(CC(C3)C1)C2
3340 nM
